System: SW-620 colon
Assay: NCI tumour cell line growth inhibition, 48 h
measurement name: TGI

Past entries and their recorded results:
- compound: "COc1cc2cc(Oc3ccc(NC(=O)Nc4ccccc4)cc3)c(C)nc2cc1OCCN1CCCCC1"
  TGI: "11.9 µM"
- compound: "CC1(C)OCC2OC3([C@H](O)CCO)OC(C)(C)OC3C2O1 (some centres undefined)"
  TGI: "> 100 µM"

Could you report TGI for every entry in the following list?
1. O=C1CN(c2ccc(Cl)cc2)C(=O)CN1CCN1CC(=O)N(c2ccc(Cl)cc2)CC1=O
2. Cc1cc(S(=O)(=O)Nc2nc3ccsc3c(=O)n2Cc2ccco2)c(S)cc1Cl
3. O=C1/C(=C/c2ccccc2)SC(=Nc2ccccc2)N1Nc1ccccc1
4. COc1ccc(CNc2nc(NCc3ccc(OC)cc3)nc(Nc3ccccc3)n2)cc1
5. Cc1cc(Cc2cc(C)c(NC(=O)C(=O)C3C(=O)NC(=S)NC3=O)c(C(C)C)c2)cc(C(C)C)c1NC(=O)C(=O)C1C(=O)NC(=S)NC1=O
6. NC(=O)c1[nH]nc(C2OC(CO)C(O)C2O)c1O (centres undefined)
7. CC1=C/C(=N/N2C(=O)/C(=C/c3ccc(Cl)cc3)N=C2c2ccccc2)CC(C)(C)C1

["> 100 µM", "> 100 µM", "> 100 µM", "> 100 µM", "> 100 µM", "2050 µM", "> 100 µM"]
